Test system: NCI-H929 complex spheroids, viability % test/control
Assay notes: Anticancer human tumor NCI-H929 cell line growth inhibition [RAS]; active means viability on the fitted dose curve at most 10% of control; inactive means the rest;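 further: compound exposure lasted seven days before viability was read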
Measurement parameters: second compound 0.01 µM; first compound 1 µM
Assign a class; possible classes are Y = active, N = inactive

*Q* Call for entry CC(Nc1ccc2c(c1)OCCn1cc(N3C(=O)OCC3C(F)F)nc1-2)C(N)=O (centres undefined) + C=CC(=O)N1CCN(c2nc(OCC3CCCN3C)nc3c(F)c(-c4nc(N)cc(C)c4C(F)(F)F)c(Cl)cc23)C(C)C1 :
*A* N

*Q* What did the test return for CCN1CCN(Cc2ccc(Nc3ncc(F)c(-c4cc(F)c5nc(C)n(C(C)C)c5c4)n3)nc2)CC1 + C=CC(=O)N1CCN(c2nc(OCC3CCCN3C)nc3c(F)c(-c4nc(N)cc(C)c4C(F)(F)F)c(Cl)cc23)C(C)C1 ?
*A* N

*Q* Assay result, entry CC1(O)CCCC1n1c(=O)c(C(F)F)cc2cnc(NC3CCN(S(C)(=O)=O)CC3)nc21 (centres undefined) + C=CC(=O)N1CCN(c2nc(OCC3CCCN3C)nc3c(F)c(-c4nc(N)cc(C)c4C(F)(F)F)c(Cl)cc23)C(C)C1 — outcome?
*A* Y

*Q* Please let me know the test result on file for C[C@@H](NC(=O)c1ncnc(N)c1Cl)c1ncc(C(=O)Nc2cc(C(F)(F)F)c(Cl)cn2)s1 + C=CC(=O)N1CCN(c2nc(OCC3CCCN3C)nc3c(F)c(-c4nc(N)cc(C)c4C(F)(F)F)c(Cl)cc23)C(C)C1 .
*A* N

*Q* Entry CC(=O)OC12COC1CC(O)C1(C)C(=O)C(O)C3=C(C)C(OC(=O)C(O)C(NC(=O)OC(C)(C)C)c4ccccc4)CC(O)(C(OC(=O)c4ccccc4)C21)C3(C)C (centres undefined) + C=CC(=O)N1CCN(c2nc(OCC3CCCN3C)nc3c(F)c(-c4nc(N)cc(C)c4C(F)(F)F)c(Cl)cc23)C(C)C1 : call = ?
*A* Y

*Q* What was the test verdict on Nc1ccn(C2OC(CO)C(O)C2(F)F)c(=O)n1 (centres undefined) + C=CC(=O)N1CCN(c2nc(OCC3CCCN3C)nc3c(F)c(-c4nc(N)cc(C)c4C(F)(F)F)c(Cl)cc23)C(C)C1 ?
*A* Y

*Q* // param item: NC1c2ccccc2OC12CCN(c1cnc3c(N4CCCc5ncccc54)n[nH]c3n1)CC2 (centres undefined) + C=CC(=O)N1CCN(c2nc(OCC3CCCN3C)nc3c(F)c(-c4nc(N)cc(C)c4C(F)(F)F)c(Cl)cc23)C(C)C1 ; yields the recorded call
*A* N

*Q* Would you mind telling me which call this test gave O=C(c1ccc(F)c(F)c1Nc1ccc(I)cc1F)N1CC(O)([C@@H]2CCCCN2)C1 + C=CC(=O)N1CCN(c2nc(OCC3CCCN3C)nc3c(F)c(-c4nc(N)cc(C)c4C(F)(F)F)c(Cl)cc23)C(C)C1 ?
*A* N

*Q* Fill in: this test's call for C=CC(=O)Nc1cc(Nc2nccc(-c3cn(C)c4ccccc34)n2)c(OC)cc1N(C)CCN(C)C + C=CC(=O)N1CCN(c2nc(OCC3CCCN3C)nc3c(F)c(-c4nc(N)cc(C)c4C(F)(F)F)c(Cl)cc23)C(C)C1 is ___
*A* N
